Values compiled from paper PMC6562471.

# protocol-notes: Cell viability (SRB assay), normal MRC-5
# Type: cell-based
# study-conditions: human, normal cell line
measure: pIC50
Scale: negative log10 of molar concentration, which is what pIC50 denotes.

input: Which pIC50 value belongs to `COc1ncc(-c2ccc3ncc(C(=O)NCCN4CCOCC4)n3c2)cc1NS(=O)(=O)c1ccc(F)cc1F` ?
output: 5.54

* * *

# protocol-notes: Pharmacokinetic study in male ICR mice
# Assay type: in vivo
# study-conditions: mouse, plasma, po 10 mg/kg, read-out: MRTinf_obs
measure: MRT inf (h)
The figure you give is taken to be in h; do not add the unit.

input: Can you look up the measured MRT inf of `COc1ncc(-c2ccc3ncc(C(=O)NCCN4CCOCC4)n3c2)cc1NS(=O)(=O)c1ccc(F)cc1F` for me?
output: 2.2
